For each entry below, report its pIC50 value.
tgt: Dipeptidyl peptidase 1 (Homo sapiens, UniProt P53634)
Sequence (P53634 25-134 limits assumed): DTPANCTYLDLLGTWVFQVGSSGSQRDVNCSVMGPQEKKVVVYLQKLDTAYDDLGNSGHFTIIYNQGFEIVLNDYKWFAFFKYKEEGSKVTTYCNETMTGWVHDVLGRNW
Sequence (P53634 231-394 limits assumed): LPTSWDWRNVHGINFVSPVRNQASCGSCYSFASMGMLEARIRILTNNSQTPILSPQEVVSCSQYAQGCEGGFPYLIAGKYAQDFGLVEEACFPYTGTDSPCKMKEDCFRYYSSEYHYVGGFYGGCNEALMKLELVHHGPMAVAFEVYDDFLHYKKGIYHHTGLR
Sequence (P53634 395-463 limits assumed): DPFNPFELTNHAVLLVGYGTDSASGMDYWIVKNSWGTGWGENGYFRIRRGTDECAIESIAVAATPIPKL
test-protocol: Inhibition of human recombinant Cathepsin C using Gly-Phe-AFC as substrate preincubated for 3 hrs followed by substrate addition and measured after 1 hr by fluorescence based multifunctional microplate reader analysis
# pIC50 is unitless: minus log10 of the molar concentration; print number only

Q: Please look at this compound and report its pIC50: CN1CCN(Cc2ccc(-c3cccc4c3NC(=O)/C4=C\c3ccnc4ccccc34)cc2)CC1
A: 6.79

Q: Note pIC50 for the compound shown: CC(=O)c1ccc(-c2cccc3c2NC(=O)/C3=C\c2ccnc3ccccc23)cc1
A: 6.53

Q: Identify the reported pIC50 for the following entry. O=C1Nc2c(cccc2-c2ccc(CN3CCOCC3)cc2)/C1=C/c1ccnc2ccccc12
A: 6.98

# credit: ChEMBL document CHEMBL6092168
